Entry source: patent US9566312B2

# Target or test system: cyclophilin A (CypA) (Homo sapiens (Human))
# Sequence (P62937 whole entry): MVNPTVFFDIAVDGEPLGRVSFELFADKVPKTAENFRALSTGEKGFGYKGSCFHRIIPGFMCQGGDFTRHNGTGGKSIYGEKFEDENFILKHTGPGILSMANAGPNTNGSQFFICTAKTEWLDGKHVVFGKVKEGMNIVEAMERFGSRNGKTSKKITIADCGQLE
# Experiment description: Inhibitor binding to cyclophilin proteins by SPR, CypA;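 further: Single-cycle kinetics on a Biacore T200, compound injected at several concentrations for 1 min each at 50 µL/min, then 10 min dissociation, in HEPES pH 7.4 buffer with 3% DMSO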
# Parameters: unit not given here
# Condition label: 1:1 binding model
Starred links: 1 amine or outer side, 2 acyl side, 3 side chain; linkers in the order of their positions; H or OH if unused. Non-standard residues stand in square brackets, D forms with d. Residues, ends and D or L forms follow the SMILES beside them. X69 = C[C@H](CCCN1CCC(C(N)=O)CC1)[C@@H](C(=O)[*:2])N(C)[*:1]; MeBmt = C/C=C/C[C@@H](C)[C@@H](O)[C@H](NC)C(=O)O; X77 = COC[C@H](C)[C@@H](C(=O)[*:2])N(C)[*:1]; NMeL = CN[C@@H](CC(C)C)C(=O)O; NMeV = CN[C@H](C(=O)O)C(C)C; dNMeA = CN[C@H](C)C(=O)O; Abu = CC[C@H](N)C(=O)O
Each record here notes measured CypA Kd.
# answer = number (no unit)

Compound	Target or test system	Endpoint name	Experimental result
C/C=C/C[C@@H](C)[C@@H](O)[C@H]1C(=O)N[C@@H](CC)C(=O)N(C)[C@H](C)C(=O)N(C)[C@@H]([C@@H](C)COC)C(=O)N[C@@H](C(C)C)C(=O)N(C)[C@@H](CC(C)C)C(=O)N[C@@H](C)C(=O)N[C@H](C)C(=O)N(C)[C@@H](CC(C)C)C(=O)N(C)[C@@H](CC(C)C)C(=O)N(C)[C@@H](C(C)C)C(=O)N1C [Compound 2.2] (cyclo(A[dA][NMeL][NMeL][NMeV][MeBmt][Abu][dNMeA][X77]V[NMeL]))	cyclophilin A (CypA) (Homo sapiens (Human))	CypA Kd	1.7

Let us examine a further case.
Entry C/C=C/C[C@@H](C)[C@@H](O)[C@H]1C(=O)N[C@@H](CC)C(=O)N(C)[C@H](C)C(=O)N(C)[C@@H]([C@H](C)CCCN2CCC(C(N)=O)CC2)C(=O)N[C@@H](C(C)C)C(=O)N(C)[C@@H](CC(C)C)C(=O)N[C@@H](C)C(=O)N[C@H](C)C(=O)N(C)[C@@H](CC(C)C)C(=O)N(C)[C@@H](CC(C)C)C(=O)N(C)[C@@H](C(C)C)C(=O)N1C [Compound 2.19.2] (cyclo(A[dA][NMeL][NMeL][NMeV][MeBmt][Abu][dNMeA][X69]V[NMeL])) : reported CypA Kd = ? 0.9

----------
# Target or test system: UniProtKB P23284
# Sequence (P23284 34-216): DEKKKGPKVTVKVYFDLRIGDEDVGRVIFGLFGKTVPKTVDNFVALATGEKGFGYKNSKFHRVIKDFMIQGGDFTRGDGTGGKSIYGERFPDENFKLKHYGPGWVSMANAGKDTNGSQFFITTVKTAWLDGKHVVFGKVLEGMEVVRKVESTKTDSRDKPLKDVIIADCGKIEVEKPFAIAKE
# Experiment description: Inhibitor binding to cyclophilin proteins by SPR, CypB
# Design: unit not given here
# Condition label: 1:1 binding model
# Experimental: Method 1: Measuring Inhibitor Binding to Cyclophilin Proteins Binding of inhibitors to expressed cyclophilins was determined using surface plasmon resonance (SPR) experiments. Briefly, avi-tagged cyclophilin proteins with mono-biotinylation were immobilized onto a Biotin CAPture chip (GE Healthcare, cat. #28920234). […] Data was analyzed using Biacore T200 Evaluation Software Version 1.0 and a 1:1 binding model was applied to fit the data to obtain kon, koff, and KD.
Starred links: 1 amine or outer side, 2 acyl side, 3 side chain; linkers in the order of their positions; H or OH if unused. Non-standard residues stand in square brackets, D forms with d. Residues, ends and D or L forms follow the SMILES beside them. X27 = C[C@H](COCC(=O)N1CCN(C2CCOCC2)CC1)[C@@H](C(=O)[*:2])N(C)[*:1]; MeBmt = C/C=C/C[C@@H](C)[C@@H](O)[C@H](NC)C(=O)O; NMeL = CN[C@@H](CC(C)C)C(=O)O; NMeV = CN[C@H](C(=O)O)C(C)C; dNMeA = CN[C@H](C)C(=O)O; Abu = CC[C@H](N)C(=O)O
Endpoint name: CypB Kd
# answer = number (no unit)

Entry C/C=C/C[C@@H](C)[C@@H](O)[C@H]1C(=O)N[C@@H](CC)C(=O)N(C)[C@H](C)C(=O)N(C)[C@@H]([C@H](C)COCC(=O)N2CCN(C3CCOCC3)CC2)C(=O)N[C@@H](C(C)C)C(=O)N(C)[C@@H](CC(C)C)C(=O)N[C@@H](C)C(=O)N[C@H](C)C(=O)N(C)[C@@H](CC(C)C)C(=O)N(C)[C@@H](CC(C)C)C(=O)N(C)[C@@H](C(C)C)C(=O)N1C [Compound 2.6.2] (cyclo([MeBmt][Abu][dNMeA][X27]V[NMeL]A[dA][NMeL][NMeL][NMeV])) : reported CypB Kd = ? 0.7

----------
# Target or test system: UniProt:Q9Y6L6
# Experiment description: OATP assay in CHO-OATP1B1 cells
Starred links: 1 amine or outer side, 2 acyl side, 3 side chain; linkers in the order of their positions; H or OH if unused. Non-standard residues stand in square brackets, D forms with d. Residues, ends and D or L forms follow the SMILES beside them. X11 = CCN1CCN(C[C@H](C)[C@@H](C(=O)[*:2])N(C)[*:1])CC1; X17 = C[C@H](COCC(C)(C)O)[C@@H](C(=O)[*:2])N(C)[*:1]; MeBmt = C/C=C/C[C@@H](C)[C@@H](O)[C@H](NC)C(=O)O; X13 = C[C@H](CC#N)[C@@H](C(=O)[*:2])N(C)[*:1]; NMeL = CN[C@@H](CC(C)C)C(=O)O; NMeV = CN[C@H](C(=O)O)C(C)C; dNMeA = CN[C@H](C)C(=O)O; Abu = CC[C@H](N)C(=O)O
Endpoint name: pIC50
// pIC50 is dimensionless: -log10 of concentration (M)

Known pIC50 results, listed for orientation:
Compound	Target or test system	Endpoint name	Experimental result
C/C=C/C[C@@H](C)[C@@H](O)[C@H]1C(=O)N[C@@H](CC)C(=O)N(C)[C@H](C)C(=O)N(C)[C@@H]([C@@H](C)CN2CCN(CC)CC2)C(=O)N[C@@H](C(C)C)C(=O)N(C)[C@@H](CC(C)C)C(=O)N[C@@H](C)C(=O)N[C@H](C)C(=O)N(C)[C@@H](CC(C)C)C(=O)N(C)[C@@H](CC(C)C)C(=O)N(C)[C@@H](C(C)C)C(=O)N1C [Compound 2.17.2] (cyclo(A[dA][NMeL][NMeL][NMeV][MeBmt][Abu][dNMeA][X11]V[NMeL]))	UniProt:Q9Y6L6	pIC50	5.29
C/C=C/C[C@@H](C)[C@@H](O)[C@H]1C(=O)N[C@@H](CC)C(=O)N(C)[C@H](C)C(=O)N(C)[C@@H]([C@H](C)COCC(C)(C)O)C(=O)N[C@@H](C(C)C)C(=O)N(C)[C@@H](CC(C)C)C(=O)N[C@@H](C)C(=O)N[C@H](C)C(=O)N(C)[C@@H](CC(C)C)C(=O)N(C)[C@@H](CC(C)C)C(=O)N(C)[C@@H](C(C)C)C(=O)N1C [Compound 2.7] (cyclo(A[dA][NMeL][NMeL][NMeV][MeBmt][Abu][dNMeA][X17]V[NMeL]))	UniProt:Q9Y6L6	pIC50	5.74

API: value(readout= pIC50, system= UniProt:Q9Y6L6, query= C/C=C/C[C@@H](C)[C@@H](O)[C@H]1C(=O)N[C@@H](CC)C(=O)N(C)[C@H](C)C(=O)N(C)[C@@H]([C@H](C)CC#N)C(=O)N[C@@H](C(C)C)C(=O)N(C)[C@@H](CC(C)C)C(=O)N[C@@H](C)C(=O)N[C@H](C)C(=O)N(C)[C@@H](CC(C)C)C(=O)N(C)[C@@H](CC(C)C)C(=O)N(C)[C@@H](C(C)C)C(=O)N1C [Compound 2.10] (cyclo(A[dA][NMeL][NMeL][NMeV][MeBmt][Abu][dNMeA][X13]V[NMeL])) ) 6.05

----------
Each record here notes measured IC50.
# Target or test system: organic anion transporting polypeptide 1B1 (OATP1B1) (Homo sapiens (Human))
# Sequence (Q9Y6L6 whole entry): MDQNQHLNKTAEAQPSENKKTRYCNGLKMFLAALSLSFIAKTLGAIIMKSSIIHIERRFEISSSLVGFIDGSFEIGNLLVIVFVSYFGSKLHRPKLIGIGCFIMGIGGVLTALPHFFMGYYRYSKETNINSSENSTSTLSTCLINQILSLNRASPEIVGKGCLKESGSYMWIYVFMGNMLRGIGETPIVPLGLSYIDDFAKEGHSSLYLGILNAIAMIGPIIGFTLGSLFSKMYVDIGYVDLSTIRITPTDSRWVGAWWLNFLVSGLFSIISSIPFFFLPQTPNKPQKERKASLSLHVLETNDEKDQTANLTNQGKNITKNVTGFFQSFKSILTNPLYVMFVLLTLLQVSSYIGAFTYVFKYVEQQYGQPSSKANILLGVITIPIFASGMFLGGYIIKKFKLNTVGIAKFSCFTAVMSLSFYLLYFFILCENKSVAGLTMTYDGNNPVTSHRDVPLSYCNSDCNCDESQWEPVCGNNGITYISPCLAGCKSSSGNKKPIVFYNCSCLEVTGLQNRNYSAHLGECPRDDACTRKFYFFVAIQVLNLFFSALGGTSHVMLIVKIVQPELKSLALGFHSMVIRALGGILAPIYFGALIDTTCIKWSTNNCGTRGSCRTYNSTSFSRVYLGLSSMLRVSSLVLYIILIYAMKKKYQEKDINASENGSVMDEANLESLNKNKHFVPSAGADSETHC
# Experiment description: OATP assay in CHO-OATP1B1 cells;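 further: inhibition of probe substrate uptake into the cells, ten minutes exposure, accumulated substrate read by fluorescence once cells were lysed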
Starred links: 1 amine or outer side, 2 acyl side, 3 side chain; linkers in the order of their positions; H or OH if unused. Non-standard residues stand in square brackets, D forms with d. Residues, ends and D or L forms follow the SMILES beside them. X61 = C[C@@H]1CN(CCOC[C@@H](C)[C@@H](C(=O)[*:2])N(C)[*:1])[C@H](C)CO1; X7 = C[C@H](COCCN1CCS(=O)(=O)CC1)[C@@H](C(=O)[*:2])N(C)[*:1]; X72 = C[C@H](CCN1CCN(C2CCC2)CC1)[C@@H](C(=O)[*:2])N(C)[*:1]; X34 = C[C@H](COC(=O)N1CCOCC1)[C@@H](C(=O)[*:2])N(C)[*:1]; X65 = C[C@H](CCN1CCCCC1)[C@@H](C(=O)[*:2])N(C)[*:1]; MeBmt = C/C=C/C[C@@H](C)[C@@H](O)[C@H](NC)C(=O)O; NMeL = CN[C@@H](CC(C)C)C(=O)O; NMeV = CN[C@H](C(=O)O)C(C)C; dNMeA = CN[C@H](C)C(=O)O; Abu = CC[C@H](N)C(=O)O
Write it as a number; the unit nM goes unstated.

Known IC50 results, listed for orientation:
Compound	IC50 (nM)
C/C=C/C[C@@H](C)[C@@H](O)[C@H]1C(=O)N[C@@H](CC)C(=O)N(C)[C@H](C)C(=O)N(C)[C@@H]([C@H](C)CCN2CCCCC2)C(=O)N[C@@H](C(C)C)C(=O)N(C)[C@@H](CC(C)C)C(=O)N[C@@H](C)C(=O)N[C@H](C)C(=O)N(C)[C@@H](CC(C)C)C(=O)N(C)[C@@H](CC(C)C)C(=O)N(C)[C@@H](C(C)C)C(=O)N1C [Compound 2.18.8] (cyclo(A[dA][NMeL][NMeL][NMeV][MeBmt][Abu][dNMeA][X65]V[NMeL]))	2300
C/C=C/C[C@@H](C)[C@@H](O)[C@H]1C(=O)N[C@@H](CC)C(=O)N(C)[C@H](C)C(=O)N(C)[C@@H]([C@H](C)CCN2CCN(C3CCC3)CC2)C(=O)N[C@@H](C(C)C)C(=O)N(C)[C@@H](CC(C)C)C(=O)N[C@@H](C)C(=O)N[C@H](C)C(=O)N(C)[C@@H](CC(C)C)C(=O)N(C)[C@@H](CC(C)C)C(=O)N(C)[C@@H](C(C)C)C(=O)N1C [Compound 2.18.10] (cyclo(A[dA][NMeL][NMeL][NMeV][MeBmt][Abu][dNMeA][X72]V[NMeL]))	2100
C/C=C/C[C@@H](C)[C@@H](O)[C@H]1C(=O)N[C@@H](CC)C(=O)N(C)[C@H](C)C(=O)N(C)[C@@H]([C@H](C)COC(=O)N2CCOCC2)C(=O)N[C@@H](C(C)C)C(=O)N(C)[C@@H](CC(C)C)C(=O)N[C@@H](C)C(=O)N[C@H](C)C(=O)N(C)[C@@H](CC(C)C)C(=O)N(C)[C@@H](CC(C)C)C(=O)N(C)[C@@H](C(C)C)C(=O)N1C [Compound 2.5.7] (cyclo([MeBmt][Abu][dNMeA][X34]V[NMeL]A[dA][NMeL][NMeL][NMeV]))	2300

Entry C/C=C/C[C@@H](C)[C@@H](O)[C@H]1C(=O)N[C@@H](CC)C(=O)N(C)[C@H](C)C(=O)N(C)[C@@H]([C@H](C)COCCN2C[C@@H](C)OC[C@H]2C)C(=O)N[C@@H](C(C)C)C(=O)N(C)[C@@H](CC(C)C)C(=O)N[C@@H](C)C(=O)N[C@H](C)C(=O)N(C)[C@@H](CC(C)C)C(=O)N(C)[C@@H](CC(C)C)C(=O)N(C)[C@@H](C(C)C)C(=O)N1C [Compound 2.8.4] (cyclo(A[dA][NMeL][NMeL][NMeV][MeBmt][Abu][dNMeA][X61]V[NMeL])) : reported IC50 = ? 3600

Entry C/C=C/C[C@@H](C)[C@@H](O)[C@H]1C(=O)N[C@@H](CC)C(=O)N(C)[C@H](C)C(=O)N(C)[C@@H]([C@H](C)COCCN2CCS(=O)(=O)CC2)C(=O)N[C@@H](C(C)C)C(=O)N(C)[C@@H](CC(C)C)C(=O)N[C@@H](C)C(=O)N[C@H](C)C(=O)N(C)[C@@H](CC(C)C)C(=O)N(C)[C@@H](CC(C)C)C(=O)N(C)[C@@H](C(C)C)C(=O)N1C [Compound 2.8.2] (cyclo(A[dA][NMeL][NMeL][NMeV][MeBmt][Abu][dNMeA][X7]V[NMeL])) : reported IC50 = ? 3000
